Target: human α2β3γ2 GABAARs (benzodiazepine site) (Homo sapiens (Human), UniProt P18507+P47869)
Sequence (P47869 29-451): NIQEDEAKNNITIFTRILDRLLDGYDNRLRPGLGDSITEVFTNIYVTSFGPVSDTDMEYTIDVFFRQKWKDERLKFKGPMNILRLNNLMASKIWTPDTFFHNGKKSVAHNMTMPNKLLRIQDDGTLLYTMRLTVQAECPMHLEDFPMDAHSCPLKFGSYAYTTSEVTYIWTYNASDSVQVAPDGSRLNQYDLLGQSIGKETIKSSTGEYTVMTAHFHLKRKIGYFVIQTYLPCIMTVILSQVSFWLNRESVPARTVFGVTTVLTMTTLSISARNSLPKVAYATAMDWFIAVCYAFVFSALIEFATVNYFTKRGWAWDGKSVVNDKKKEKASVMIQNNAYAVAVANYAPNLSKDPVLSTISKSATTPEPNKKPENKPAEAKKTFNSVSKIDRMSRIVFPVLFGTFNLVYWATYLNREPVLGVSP
Sequence (P28472 26-473 partner): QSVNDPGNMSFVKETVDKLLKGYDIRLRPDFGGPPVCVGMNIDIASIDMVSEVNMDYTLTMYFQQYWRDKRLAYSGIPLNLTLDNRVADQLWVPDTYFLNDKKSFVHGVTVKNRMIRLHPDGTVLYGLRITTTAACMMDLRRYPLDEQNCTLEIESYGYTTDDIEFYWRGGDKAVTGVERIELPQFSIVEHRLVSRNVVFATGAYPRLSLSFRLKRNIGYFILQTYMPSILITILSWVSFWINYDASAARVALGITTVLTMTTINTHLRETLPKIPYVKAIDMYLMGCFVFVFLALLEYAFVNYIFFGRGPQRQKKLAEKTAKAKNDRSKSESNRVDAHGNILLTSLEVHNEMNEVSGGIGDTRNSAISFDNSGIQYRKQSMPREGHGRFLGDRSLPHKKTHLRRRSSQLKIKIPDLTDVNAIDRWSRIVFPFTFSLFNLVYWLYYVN
Sequence (P18507 40-475): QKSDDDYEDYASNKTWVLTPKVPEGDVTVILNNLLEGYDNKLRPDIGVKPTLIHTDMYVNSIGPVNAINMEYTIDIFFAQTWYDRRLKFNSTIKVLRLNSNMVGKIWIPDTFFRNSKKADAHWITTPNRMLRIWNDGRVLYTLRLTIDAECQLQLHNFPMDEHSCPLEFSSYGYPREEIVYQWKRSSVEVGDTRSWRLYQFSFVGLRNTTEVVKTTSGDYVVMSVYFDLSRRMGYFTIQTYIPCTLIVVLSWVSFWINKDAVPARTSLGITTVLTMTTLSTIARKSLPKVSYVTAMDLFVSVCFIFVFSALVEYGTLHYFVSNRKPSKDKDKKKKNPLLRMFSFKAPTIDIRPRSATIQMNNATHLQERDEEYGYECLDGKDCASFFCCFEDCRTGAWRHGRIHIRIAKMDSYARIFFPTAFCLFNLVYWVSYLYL
Test: In vitro radioligand binding assay ([3H]Ro15-1788 displacement), α2-GABAAR Ki
Description: The affinity (Ki) of compounds for the benzodiazepine site of human recombinant GABAARs was measured by their ability to inhibit the binding of the selective benzodiazepine antagonist [^3H]Ro15-1788 ([^3H] flumazenil). […] The % inhibition of [^3H]Ro15-1788 binding was plotted as a function of compound concentration and the IC50 calculated. From the IC50, the affinity (Ki) was calculated using the method of Cheng and Prusoff using the Kd values obtained for [^3H]Ro15-1788.
Reported pKi is given for each of the following compounds.
When answering, recall that pKi equals minus log10 of the concentration in mol/L, and write that number alone.

CCCNC(=O)c1c(N)c2cccc(-c3cc(OCc4ccc(C#N)cn4)ccc3F)c2[nH]c1=O [Example 99] | 9.62
CCCNC(=O)c1c(N)c2cccc(-c3cc(OCc4cncn4C)ccc3F)c2[nH]c1=O [Example 125] | 9.43
Cc1nn(C)cc1-c1cccc2c(N)c(C(=O)NCCC(F)(F)F)c(=O)[nH]c12 [Example 73] | 8.51
COc1ccncc1-c1cccc2c(N)c(C(=O)NCC(C)C)c(=O)n(C)c12 [Example 79] | 8.60
CCCNC(=O)c1c(N)c2cccc(-c3cc(OCc4coc(C(C)C)n4)ccc3F)c2[nH]c1=O [Example 123] | 8.77
CCCNC(=O)c1c(N)c2cccc(-c3nc(N)ncc3F)c2[nH]c1=O [Example 41] | 9.40
CCCNC(=O)c1c(N)c2cccc(-c3cncc(F)c3)c2[nH]c1=O [Example 22] | 7.87
CCCNC(=O)c1c(N)c2cccc(-c3cccc(OC(F)F)n3)c2[nH]c1=O [Example 2] | 8.48
CCCNC(=O)c1c(N)c2cccc(-c3cc(OCc4cocn4)ccc3F)c2[nH]c1=O [Example 121] | 9.52
CCCNC(=O)c1c(N)c2cccc(-c3cc(CN4CCC5(CCN(C)CC5)C4)ccc3F)c2[nH]c1=O [Example 143] | 8.74

Exercise: Looking for the measured pKi of COc1ccncc1-c1cccc2c(N)c(C(=O)NCCO)c(=O)[nH]c12 [Example 64] , can you help?
Key: 7.07

Exercise: Could you do the same for CCCNC(=O)c1c(N)c2cccc(-c3cc(CN4CCC5(CCN(C)C5)C4)ccc3F)c2[nH]c1=O (centres unmarked) [Example 142] , please?
Key: 8.44

Exercise: Could you do the same for CCCNC(=O)c1c(N)c2cccc(-c3ncccc3C)c2[nH]c1=O [Example 5] , please?
Key: 8.25

Exercise: Could you do the same for CCCNC(=O)c1c(N)c2cccc(-c3cc(OCCn4cnnc4)ccc3F)c2[nH]c1=O [Example 134] , please?
Key: 9.77

Exercise: Could you do the same for CCCNC(=O)c1c(N)c2cccc(-c3cc(OCC4COC4)ccc3F)c2[nH]c1=O [Example 136] , please?
Key: 9.05

Exercise: Could you do the same for CCCNC(=O)c1c(N)c2cccc(-c3cc(OCc4ccoc4)ccc3F)c2[nH]c1=O [Example 116] , please?
Key: 8.93

Exercise: Could you do the same for CCCNC(=O)c1c(N)c2cccc(-c3cccc(OCc4cccnc4)n3)c2[nH]c1=O [Example 111] , please?
Key: 9.64
